A collection of compounds and their measured IC50
# assay.system: Polyunsaturated fatty acid lipoxygenase ALOX15 (Oryctolagus cuniculus)
# Sequence (P12530 whole entry): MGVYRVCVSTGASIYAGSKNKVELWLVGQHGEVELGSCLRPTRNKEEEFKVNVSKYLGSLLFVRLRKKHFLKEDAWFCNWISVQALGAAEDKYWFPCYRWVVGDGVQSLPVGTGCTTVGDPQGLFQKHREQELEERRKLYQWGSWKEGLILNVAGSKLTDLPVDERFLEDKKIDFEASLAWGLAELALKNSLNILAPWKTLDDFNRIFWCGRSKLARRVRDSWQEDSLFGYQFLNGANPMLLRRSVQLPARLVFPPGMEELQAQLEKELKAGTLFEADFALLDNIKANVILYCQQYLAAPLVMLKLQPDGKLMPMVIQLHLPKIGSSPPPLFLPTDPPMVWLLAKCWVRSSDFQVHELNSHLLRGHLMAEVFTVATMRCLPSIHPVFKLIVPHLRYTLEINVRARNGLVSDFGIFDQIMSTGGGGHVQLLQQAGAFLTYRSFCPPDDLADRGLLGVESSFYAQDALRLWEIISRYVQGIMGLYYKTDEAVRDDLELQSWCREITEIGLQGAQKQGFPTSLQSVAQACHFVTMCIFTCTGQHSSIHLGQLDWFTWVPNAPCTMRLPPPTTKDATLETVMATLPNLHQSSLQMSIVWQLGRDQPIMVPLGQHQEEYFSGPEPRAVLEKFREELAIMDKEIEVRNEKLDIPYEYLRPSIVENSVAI
reported.property: IC50

- item.smiles: "CCCCCC(=O)/C=C/C=C\\CCCCCCCC(=O)O"
  experimental.result: "> 100 µM"
- item.smiles: "CCCCC/C=C\\C/C=C\\C/C=C\\C=C\\C(=O)CCCC(=O)O"
  experimental.result: "> 25 µM"

* * *

Read-out record for Polyunsaturated fatty acid lipoxygenase ALOX15 (Homo sapiens): IC50
reported.property: IC50

- item.smiles: "CCCCC/C=C\\CC(=O)/C=C/C=C\\C/C=C\\CCCC(=O)O"
  assay.system: "Polyunsaturated fatty acid lipoxygenase ALOX15 (Homo sapiens)"
  experimental.result: "3 µM"
- item.smiles: "CCCCCC(=O)/C=C/C=C\\CCCCCCCC(=O)O"
  assay.system: "Polyunsaturated fatty acid lipoxygenase ALOX15 (Homo sapiens)"
  experimental.result: "> 100 µM"
- item.smiles: "CCCCC/C=C\\C/C=C\\C/C=C\\C=C\\C(=O)CCCC(=O)O"
  assay.system: "Polyunsaturated fatty acid lipoxygenase ALOX15 (Homo sapiens)"
  experimental.result: "> 25 µM"
